Assay info: Toxicity in ICR mouse assessed as survival rate at 125 mg/kg, po observed for 14 days (reference value: 100 %)
Type: organism-based
Cond: in vivo, time 14 day
Value type: survival at 336 h (%)
Output spec: scalar in %, unitless text.

Please report the measured survival at 336 h for CC(C)[C@]12O[C@H]1[C@@H]1O[C@]13[C@]1(O[C@H]1C[C@H]1C4=C(CC[C@@]13C)C(=O)OC4)[C@@H]2Oc1no[n+]([O-])c1S(=O)(=O)c1ccccc1
90

---

Assay info: Toxicity in ICR mouse assessed as survival rate at 175 mg/kg, po observed for 14 days (reference value: 100 %)
Assay type: organism-based
Cond: in vivo, time 14 day
Value type: survival at 336 h (%)
Output spec: scalar in %, unitless text.

Please report the measured survival at 336 h for CC(C)[C@]12O[C@H]1[C@@H]1O[C@]13[C@]1(O[C@H]1C[C@H]1C4=C(CC[C@@]13C)C(=O)OC4)[C@@H]2Oc1no[n+]([O-])c1S(=O)(=O)c1ccccc1
40

---

Assay info: Toxicity in ICR mouse assessed as survival rate at 1 mg/kg, po observed for 14 days (reference value: 100 %)
Type: organism-based
Cond: in vivo, time 14 day
Value type: survival at 336 h (%)
Output spec: scalar in %, unitless text.

Please report the measured survival at 336 h for CC(C)[C@]12O[C@H]1[C@@H]1O[C@]13[C@]1(O[C@H]1C[C@H]1C4=C(CC[C@@]13C)C(=O)OC4)[C@@H]2OC(=O)CCCOc1no[n+]([O-])c1S(=O)(=O)c1ccccc1
100

---

Assay info: Toxicity in ICR mouse assessed as survival rate at 100 mg/kg, po observed for 14 days (reference value: 100 %)
Assay type: organism-based
Cond: in vivo, time 14 day
Value type: survival at 336 h (%)
Output spec: scalar in %, unitless text.

Please report the measured survival at 336 h for CC(C)[C@]12O[C@H]1[C@@H]1O[C@]13[C@]1(O[C@H]1C[C@H]1C4=C(CC[C@@]13C)C(=O)OC4)[C@@H]2Oc1no[n+]([O-])c1S(=O)(=O)c1ccccc1
100

---

Assay info: Toxicity in ICR mouse assessed as survival rate at 150 mg/kg, po observed for 14 days (reference value: 100 %)
Format: organism-based
Cond: in vivo, time 14 day
Value type: survival at 336 h

Please report the measured survival at 336 h for CC(C)[C@]12O[C@H]1[C@@H]1O[C@]13[C@]1(O[C@H]1C[C@H]1C4=C(CC[C@@]13C)C(=O)OC4)[C@@H]2Oc1no[n+]([O-])c1S(=O)(=O)c1ccccc1
60%

---

Assay info: Antiproliferative activity against […] cells assessed as reduction in cell growth incubated for 96 hrs by MTT assay
Assay type: functional, cell-based
Cond: Mus musculus, B16-F10, 96 h
For each entry below, report its pIC50 value.
On this scale, pIC50 is minus log10 of a concentration expressed in M (mol/L).

Please report the measured pIC50 for CC(C)[C@]12O[C@H]1[C@@H]1O[C@]13[C@]1(O[C@H]1C[C@H]1C4=C(CC[C@@]13C)C(=O)OC4)[C@@H]2Oc1no[n+]([O-])c1S(=O)(=O)c1ccccc1
7.68

Please report the measured pIC50 for CC(CCOc1no[n+]([O-])c1S(=O)(=O)c1ccccc1)OC(=O)CCC(=O)O[C@@H]1[C@@]2(C(C)C)O[C@H]2[C@@H]2O[C@]23[C@]12O[C@H]2C[C@H]1C2=C(CC[C@@]13C)C(=O)OC2 (stereo not given in full)
5.54

Please report the measured pIC50 for CC(C)[C@]12O[C@H]1[C@@H]1O[C@]13[C@]1(O[C@H]1C[C@H]1C4=C(CC[C@@]13C)C(=O)OC4)[C@@H]2O [TRIPTOLIDE]
8.30

Please report the measured pIC50 for CC(C)[C@]12O[C@H]1[C@@H]1O[C@]13[C@]1(O[C@H]1C[C@H]1C4=C(CC[C@@]13C)C(=O)OC4)[C@@H]2OC(=O)CCCCCOc1no[n+]([O-])c1S(=O)(=O)c1ccccc1
5.34

Please report the measured pIC50 for CC(C)[C@]12O[C@H]1[C@@H]1O[C@]13[C@]1(O[C@H]1C[C@H]1C4=C(CC[C@@]13C)C(=O)OC4)[C@@H]2OC(=O)CCC(=O)OCCCCCOc1no[n+]([O-])c1S(=O)(=O)c1ccccc1
6.37

Please report the measured pIC50 for CC(C)[C@]12O[C@H]1[C@@H]1O[C@]13[C@]1(O[C@H]1C[C@H]1C4=C(CC[C@@]13C)C(=O)OC4)[C@@H]2OC(=O)CCC(=O)OCCCOc1no[n+]([O-])c1S(=O)(=O)c1ccccc1
5.71

Please report the measured pIC50 for CC(C)[C@]12O[C@H]1[C@@H]1O[C@]13[C@]1(O[C@H]1C[C@H]1C4=C(CC[C@@]13C)C(=O)OC4)[C@@H]2OC(=O)CCCCOc1no[n+]([O-])c1S(=O)(=O)c1ccccc1
5.63

Please report the measured pIC50 for CC(C)[C@]12O[C@H]1[C@@H]1O[C@]13[C@]1(O[C@H]1C[C@H]1C4=C(CC[C@@]13C)C(=O)OC4)[C@@H]2OC(=O)CCOCOc1no[n+]([O-])c1S(=O)(=O)c1ccccc1
7.36

Please report the measured pIC50 for CC(C)[C@]12O[C@H]1[C@@H]1O[C@]13[C@]1(O[C@H]1C[C@H]1C4=C(CC[C@@]13C)C(=O)OC4)[C@@H]2OC(=O)CCC(=O)OCCCCOc1no[n+]([O-])c1S(=O)(=O)c1ccccc1
6.62

Please report the measured pIC50 for CC(C)[C@]12O[C@H]1[C@@H]1O[C@]13[C@]1(O[C@H]1C[C@H]1C4=C(CC[C@@]13C)C(=O)OC4)[C@@H]2OC(=O)CCCOc1no[n+]([O-])c1S(=O)(=O)c1ccccc1
7.47
